molecular target: Melanocortin receptor 4 (Homo sapiens, UniProt P32245); test: Agonist activity at human MC4 receptor expressed in HEK293 cells assessed as cAMP accumulation at 10 uM by luminescence counter relative to MT-II; format: functional, cell-based
Sequence (P32245 whole entry): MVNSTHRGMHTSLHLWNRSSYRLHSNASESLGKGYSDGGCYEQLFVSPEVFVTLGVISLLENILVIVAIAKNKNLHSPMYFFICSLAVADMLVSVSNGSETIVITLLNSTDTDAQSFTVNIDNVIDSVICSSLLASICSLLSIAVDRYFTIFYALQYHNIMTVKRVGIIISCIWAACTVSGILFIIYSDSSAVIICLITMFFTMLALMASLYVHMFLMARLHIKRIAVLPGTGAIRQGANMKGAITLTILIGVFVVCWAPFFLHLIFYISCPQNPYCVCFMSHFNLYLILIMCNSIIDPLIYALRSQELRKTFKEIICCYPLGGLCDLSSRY
Reported values of Activity for individual entries
MEASUREMENT_KIND: Activity (%)

cpd_smiles=CC(=O)N[C@H]1Cc2ccccc2CN([C@H](Cc2ccccc2)C(=O)N[C@@H](CCCNC(=N)N)C(=O)N[C@@H](Cc2c[nH]c3ccccc23)C(N)=O)C1=O measurement_kind=Activity numeric_value=80
cpd_smiles=CC(=O)N[C@H]1Cc2c([nH]c3ccccc23)CN([C@H](Cc2ccc(F)cc2)C(=O)N[C@@H](CCCNC(=N)N)C(=O)N[C@@H](Cc2c[nH]c3ccccc23)C(N)=O)C1=O measurement_kind=Activity numeric_value=100
cpd_smiles=CC(=O)N[C@H]1Cc2c([nH]c3ccccc23)CN([C@H](Cc2ccccc2)C(=O)N[C@@H](CCCNC(=N)N)C(=O)N[C@@H](Cc2c[nH]c3ccccc23)C(N)=O)C1=O measurement_kind=Activity numeric_value=51
cpd_smiles=CC(=O)N[C@H]1Cn2nncc2CN([C@H](Cc2ccccc2)C(=O)N[C@@H](CCCNC(=N)N)C(=O)N[C@@H](Cc2c[nH]c3ccccc23)C(N)=O)C1=O measurement_kind=Activity numeric_value=80
cpd_smiles=CC(=O)N[C@H]1Cc2c([nH]c3ccccc23)CN([C@H](Cc2ccc(Br)cc2)C(=O)N[C@@H](CCCNC(=N)N)C(=O)N[C@@H](Cc2c[nH]c3ccccc23)C(N)=O)C1=O measurement_kind=Activity numeric_value=80

====

molecular target: Melanocyte-stimulating hormone receptor (Homo sapiens); experiment: Activity at human MC1 receptor expressed in HEK293 cells assessed as cAMP accumulation at 10 uM by luminescence counter relative to MT-II; format: functional, cell-based
// Activity lookup, one value per entry
MEASUREMENT_KIND: Activity (%)

cpd_smiles=CC(=O)N[C@H]1Cc2c([nH]c3ccccc23)CN([C@H](Cc2ccccc2)C(=O)N[C@@H](CCCNC(=N)N)C(=O)N[C@@H](Cc2c[nH]c3ccccc23)C(N)=O)C1=O experimental_target="Melanocyte-stimulating hormone receptor (Homo sapiens)" quantity_unit=% numeric_value=0
cpd_smiles=CC(=O)N[C@H]1Cn2nncc2CN([C@H](Cc2ccccc2)C(=O)N[C@@H](CCCNC(=N)N)C(=O)N[C@@H](Cc2c[nH]c3ccccc23)C(N)=O)C1=O experimental_target="Melanocyte-stimulating hormone receptor (Homo sapiens)" quantity_unit=% numeric_value=100
cpd_smiles=CC(=O)N[C@H]1Cc2ccccc2CN([C@H](Cc2ccccc2)C(=O)N[C@@H](CCCNC(=N)N)C(=O)N[C@@H](Cc2c[nH]c3ccccc23)C(N)=O)C1=O experimental_target="Melanocyte-stimulating hormone receptor (Homo sapiens)" quantity_unit=% numeric_value=70
cpd_smiles=CC(=O)N[C@H]1Cc2c([nH]c3ccccc23)CN([C@H](Cc2ccc(F)cc2)C(=O)N[C@@H](CCCNC(=N)N)C(=O)N[C@@H](Cc2c[nH]c3ccccc23)C(N)=O)C1=O experimental_target="Melanocyte-stimulating hormone receptor (Homo sapiens)" quantity_unit=% numeric_value=50
cpd_smiles=CC(=O)N[C@H]1Cc2c([nH]c3ccccc23)CN([C@H](Cc2ccc(Br)cc2)C(=O)N[C@@H](CCCNC(=N)N)C(=O)N[C@@H](Cc2c[nH]c3ccccc23)C(N)=O)C1=O experimental_target="Melanocyte-stimulating hormone receptor (Homo sapiens)" quantity_unit=% numeric_value=100

====

target: Melanocortin receptor 5 (Homo sapiens, UniProt P33032); experiment: Displacement of [125I]-NDP-alpha-MSH from human MC5 receptor expressed in HEK293 cells at 10 uM by gamma counting analysis; assay type: cell-based
Sequence (P33032 whole entry): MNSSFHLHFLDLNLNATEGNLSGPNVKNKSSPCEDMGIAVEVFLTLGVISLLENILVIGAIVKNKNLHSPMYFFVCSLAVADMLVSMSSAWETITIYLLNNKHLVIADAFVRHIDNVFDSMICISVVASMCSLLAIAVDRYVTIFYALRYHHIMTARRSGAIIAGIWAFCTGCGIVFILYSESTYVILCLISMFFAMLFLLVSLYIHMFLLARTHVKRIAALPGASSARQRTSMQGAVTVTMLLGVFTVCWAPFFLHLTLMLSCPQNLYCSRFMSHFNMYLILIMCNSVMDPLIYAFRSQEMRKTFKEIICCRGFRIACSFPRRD
Reported %max is given for each of the following molecules.
MEASUREMENT_KIND: %max

cpd_smiles=CC(=O)N[C@H]1Cc2c([nH]c3ccccc23)CN([C@H](Cc2ccc(F)cc2)C(=O)N[C@@H](CCCNC(=N)N)C(=O)N[C@@H](Cc2c[nH]c3ccccc23)C(N)=O)C1=O experimental_target="Melanocortin receptor 5 (Homo sapiens, UniProt P33032)" result=80%
cpd_smiles=CC(=O)N[C@H]1Cc2c([nH]c3ccccc23)CN([C@H](Cc2ccccc2)C(=O)N[C@@H](CCCNC(=N)N)C(=O)N[C@@H](Cc2c[nH]c3ccccc23)C(N)=O)C1=O experimental_target="Melanocortin receptor 5 (Homo sapiens, UniProt P33032)" result=80%
cpd_smiles=CC(=O)N[C@H]1Cn2nncc2CN([C@H](Cc2ccccc2)C(=O)N[C@@H](CCCNC(=N)N)C(=O)N[C@@H](Cc2c[nH]c3ccccc23)C(N)=O)C1=O experimental_target="Melanocortin receptor 5 (Homo sapiens, UniProt P33032)" result=70%
cpd_smiles=CC(=O)N[C@H]1Cc2c([nH]c3ccccc23)CN([C@H](Cc2ccc(Br)cc2)C(=O)N[C@@H](CCCNC(=N)N)C(=O)N[C@@H](Cc2c[nH]c3ccccc23)C(N)=O)C1=O experimental_target="Melanocortin receptor 5 (Homo sapiens, UniProt P33032)" result=100%
cpd_smiles=CC(=O)N[C@H]1Cc2ccccc2CN([C@H](Cc2ccccc2)C(=O)N[C@@H](CCCNC(=N)N)C(=O)N[C@@H](Cc2c[nH]c3ccccc23)C(N)=O)C1=O experimental_target="Melanocortin receptor 5 (Homo sapiens, UniProt P33032)" result=75%

====

target: Melanocortin receptor 3 (Homo sapiens, UniProt P41968); test: Activity at human MC3 receptor expressed in HEK293 cells assessed as cAMP accumulation by luminescence counter; type: functional, cell-based; conditions: read-out: EC50
Sequence (P41968 whole entry): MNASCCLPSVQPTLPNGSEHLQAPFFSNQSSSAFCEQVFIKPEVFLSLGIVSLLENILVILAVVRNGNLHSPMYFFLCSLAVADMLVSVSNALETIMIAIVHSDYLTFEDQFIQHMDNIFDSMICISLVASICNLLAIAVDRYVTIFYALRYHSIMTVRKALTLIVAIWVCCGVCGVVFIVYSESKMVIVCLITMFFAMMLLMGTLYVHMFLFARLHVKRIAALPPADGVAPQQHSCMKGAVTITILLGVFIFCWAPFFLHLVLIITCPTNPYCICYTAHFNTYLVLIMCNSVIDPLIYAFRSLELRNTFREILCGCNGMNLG
MEASUREMENT_KIND: EC50 (nM)

cpd_smiles=CC(=O)N[C@H]1Cn2nncc2CN([C@H](Cc2ccccc2)C(=O)N[C@@H](CCCNC(=N)N)C(=O)N[C@@H](Cc2c[nH]c3ccccc23)C(N)=O)C1=O experimental_target="Melanocortin receptor 3 (Homo sapiens, UniProt P41968)" measurement_kind=EC50 numeric_value=55
cpd_smiles=CC(=O)N[C@H]1Cc2c([nH]c3ccccc23)CN([C@H](Cc2ccc(Br)cc2)C(=O)N[C@@H](CCCNC(=N)N)C(=O)N[C@@H](Cc2c[nH]c3ccccc23)C(N)=O)C1=O experimental_target="Melanocortin receptor 3 (Homo sapiens, UniProt P41968)" measurement_kind=EC50 numeric_value=2440
cpd_smiles=CC(=O)N[C@H]1Cc2ccccc2CN([C@H](Cc2ccccc2)C(=O)N[C@@H](CCCNC(=N)N)C(=O)N[C@@H](Cc2c[nH]c3ccccc23)C(N)=O)C1=O experimental_target="Melanocortin receptor 3 (Homo sapiens, UniProt P41968)" measurement_kind=EC50 numeric_value=59
cpd_smiles=CC(=O)N[C@H]1Cc2c([nH]c3ccccc23)CN([C@H](Cc2ccccc2)C(=O)N[C@@H](CCCNC(=N)N)C(=O)N[C@@H](Cc2c[nH]c3ccccc23)C(N)=O)C1=O experimental_target="Melanocortin receptor 3 (Homo sapiens, UniProt P41968)" measurement_kind=EC50 numeric_value=52

====

target: Melanocyte-stimulating hormone receptor (Homo sapiens, UniProt Q01726); assay: Displacement of [125I]-NDP-alpha-MSH from human MC1 receptor expressed in HEK293 cells at 10 uM by gamma counting analysis; assay type: cell-based
Sequence (Q01726 whole entry, looked up): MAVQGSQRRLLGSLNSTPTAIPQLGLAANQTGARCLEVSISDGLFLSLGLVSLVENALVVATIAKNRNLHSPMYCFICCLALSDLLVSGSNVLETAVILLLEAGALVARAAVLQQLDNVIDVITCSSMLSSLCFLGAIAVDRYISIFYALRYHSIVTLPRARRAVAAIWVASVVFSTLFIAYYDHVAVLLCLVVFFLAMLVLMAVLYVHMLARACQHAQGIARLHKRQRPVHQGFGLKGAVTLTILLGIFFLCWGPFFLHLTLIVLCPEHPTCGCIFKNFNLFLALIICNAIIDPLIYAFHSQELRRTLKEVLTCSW
%max values for the compounds below.
MEASUREMENT_KIND: %max (%)

cpd_smiles=CC(=O)N[C@H]1Cc2c([nH]c3ccccc23)CN([C@H](Cc2ccc(Br)cc2)C(=O)N[C@@H](CCCNC(=N)N)C(=O)N[C@@H](Cc2c[nH]c3ccccc23)C(N)=O)C1=O experimental_target="Melanocyte-stimulating hormone receptor (Homo sapiens, UniProt Q01726)" measurement_kind=%max numeric_value=80
cpd_smiles=CC(=O)N[C@H]1Cc2ccccc2CN([C@H](Cc2ccccc2)C(=O)N[C@@H](CCCNC(=N)N)C(=O)N[C@@H](Cc2c[nH]c3ccccc23)C(N)=O)C1=O experimental_target="Melanocyte-stimulating hormone receptor (Homo sapiens, UniProt Q01726)" measurement_kind=%max numeric_value=80
cpd_smiles=CC(=O)N[C@H]1Cc2c([nH]c3ccccc23)CN([C@H](Cc2ccccc2)C(=O)N[C@@H](CCCNC(=N)N)C(=O)N[C@@H](Cc2c[nH]c3ccccc23)C(N)=O)C1=O experimental_target="Melanocyte-stimulating hormone receptor (Homo sapiens, UniProt Q01726)" measurement_kind=%max numeric_value=50
cpd_smiles=CC(=O)N[C@H]1Cc2c([nH]c3ccccc23)CN([C@H](Cc2ccc(F)cc2)C(=O)N[C@@H](CCCNC(=N)N)C(=O)N[C@@H](Cc2c[nH]c3ccccc23)C(N)=O)C1=O experimental_target="Melanocyte-stimulating hormone receptor (Homo sapiens, UniProt Q01726)" measurement_kind=%max numeric_value=40
cpd_smiles=CC(=O)N[C@H]1Cn2nncc2CN([C@H](Cc2ccccc2)C(=O)N[C@@H](CCCNC(=N)N)C(=O)N[C@@H](Cc2c[nH]c3ccccc23)C(N)=O)C1=O experimental_target="Melanocyte-stimulating hormone receptor (Homo sapiens, UniProt Q01726)" measurement_kind=%max numeric_value=60
